biological target: T1, dog serum albumin (dog, UniProt P49822 25-608); experiment: SPR (Biacore 8K), albumin immobilised, 25 C, 1:1 kinetics
T1 construct: bought protein, amine-coupled to a CM5 chip; also called Dog SA
VALUE_TYPE: koff (s⁻¹)
Express the result in s⁻¹ but write the number alone.

Consider the reported koff for these binders:
INSERT INTO measurements (binder, measure_unit, reported_result) VALUES
  ('INS Analog 25 (other, single-chain insulin B-L2-A-L1-VHH fusion; also called Ex. 25) FVSQHLCGSHLVEALRLVCGERGFFYTPKTGGGGGGGIVEQCCTSICSLYQLENYCGGGGGQGGGGQGGGGQGGGGQGGGGQEVQLLESGGGLVQPGGSLRLSCAASGRYIDETAVAWFRQAPGKEREFVAGIGGGVDITYYADSVKGRFTISRDNSKNTLYLQMNSLRPEDTAVYYCAARPGRPLITSKVADLYPYWGQGTLVTVSSPP', 's⁻¹', 0.0033),
  ('INS Analog 26 (other, single-chain insulin B-L2-A-L1-VHH fusion; also called Ex. 26) FVSQHLCGSHLVEALRLVCGERGFFYTPKTGGGGGGGIVEQCCTSICSLYQLENYCGPGPQPGPQPGPQPGPQPGPQPGPQPGPQPGPQEVQLLESGGGLVQPGGSLRLSCAASGRYIDETAVAWFRQAPGKEREFVAGIGGGVDITYYADSVKGRFTISRDNSKNTLYLQMNSLRPEDTAVYYCAARPGRPLITSKVADLYPYWGQGTLVTVSSPP', 's⁻¹', 0.0023),
  ('INS Analog 30 (other, single-chain insulin B-L2-A-L1-VHH fusion; also called Ex. 30) FVSQHLCGSHLVEALRLVCGERGFHYTPKTGGGGGGGIVEQCCHSICSLYQLENYCGPGPQPGPQPGPQPGPQPGPQPGPQPGPQPGPQEVQLLESGGGLVQPGGSLRLSCAASGRYIDETAVAWFRQAPGKEREFVAGIGGGVDITYYADSVKGRFTISRDNSKNTLYLQMNSLRPEDTAVYYCAARPGRPLITSKVADLYPYWGQGTLVTVSSPP', 's⁻¹', 0.0022),
  ('INS Analog 28 (other, single-chain insulin B-L2-A-L1-VHH fusion; also called Ex. 28) FVSQHLCGSHLVEALRLVCGERGFFYTPKTGGGGGGGIVEQCCHSICSLYQLENYCGPGPQPGPQPGPQPGPQPGPQPGPQPGPQPGPQEVQLLESGGGLVQPGGSLRLSCAASGRYIDETAVAWFRQAPGKEREFVAGIGGGVDITYYADSVKGRFTISRDNSKNTLYLQMNSLRPEDTAVYYCAARPGRPLITSKVADLYPYWGQGTLVTVSSPP', 's⁻¹', 0.0021),
  ('INS Analog 29 (other, single-chain insulin B-L2-A-L1-VHH fusion; also called Ex. 29) FVSQHLCGSHLVEALRLVCGERGFHYTPKTGGGGGGGIVEQCCHSICSLYQLENYCGGGGGQGGGGQGGGGQGGGGQGGGGQEVQLLESGGGLVQPGGSLRLSCAASGRYIDETAVAWFRQAPGKEREFVAGIGGGVDITYYADSVKGRFTISRDNSKNTLYLQMNSLRPEDTAVYYCAARPGRPLITSKVADLYPYWGQGTLVTVSSPP', 's⁻¹', 0.0032),
  ('INS Analog 24 (other, single-chain insulin B-L2-A-L1-VHH fusion; also called Ex. 24) FVSQHLCGSHLVEALHLVCGERGFHYTPKTGGGGGGGIVEQCCHSICSLEQLENYCGPGPQPGPQPGPQPGPQPGPQPGPQPGPQPGPQEVQLLESGGGLVQPGGSLRLSCAASGRYIDETAVAWFRQAPGKEREFVAGIGGGVDITYYADSVKGRFTISRDNSKNTLYLQMNSLRPEDTAVYYCAARPGRPLITSKVADLYPYWGQGTLVTVSSPP', 's⁻¹', 0.0024);

Req: Look up koff for this binder: INS Analog 23 (other, single-chain insulin B-L2-A-L1-VHH fusion; also called Ex. 23) FVSQHLCGSHLVEALHLVCGERGFHYTPKTGGGGGGGIVEQCCHSICSLEQLENYCGGGGGQGGGGQGGGGQGGGGQGGGGQEVQLLESGGGLVQPGGSLRLSCAASGRYIDETAVAWFRQAPGKEREFVAGIGGGVDITYYADSVKGRFTISRDNSKNTLYLQMNSLRPEDTAVYYCAARPGRPLITSKVADLYPYWGQGTLVTVSSPP
Resp: 0.0033
